Quick record: Ki, UniProt P35462.
Sequence (P35462 whole entry): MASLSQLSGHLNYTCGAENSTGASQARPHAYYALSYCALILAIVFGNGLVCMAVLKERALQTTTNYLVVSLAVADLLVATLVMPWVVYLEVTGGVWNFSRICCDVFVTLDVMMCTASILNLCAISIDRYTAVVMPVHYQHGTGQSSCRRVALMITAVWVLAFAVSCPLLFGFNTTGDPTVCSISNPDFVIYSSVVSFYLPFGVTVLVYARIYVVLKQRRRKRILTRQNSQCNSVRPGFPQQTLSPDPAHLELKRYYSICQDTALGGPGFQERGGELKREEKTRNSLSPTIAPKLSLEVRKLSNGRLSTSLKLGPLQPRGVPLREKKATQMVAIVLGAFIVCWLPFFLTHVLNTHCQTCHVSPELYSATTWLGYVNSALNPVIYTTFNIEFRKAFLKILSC
Just the number please, in nM, no unit attached.

Some solved entries appear below for comparison.
Lookup: Form field: reported Ki of CCCN(CCc1cccs1)[C@@H]1CCc2cccc(O)c2C1
Found: 100

Lookup: And for CCCN(CCc1cc(C)ccc1C)C1CCc2cccc(OC)c2C1 (centres unmarked) ?
Found: 110

Lookup: And for CCCN(CCc1cccs1)[C@H]1CCc2cccc(O)c2C1 ?
Found: 49

Lookup: And for CCCN(CCc1cc(C)ccc1C)C1CCc2cccc(O)c2C1 (centres unmarked) ?
Found: 130

Lookup: And for CCCN(CCc1ccc(O)cc1)C1CCc2cccc(O)c2C1 (centres unmarked) ?
Found: 95

Lookup: And for CCCN(CCc1cccs1)C1CCc2cccc(O)c2C1 (centres unmarked) ?
Found: 190

Lookup: And for CCCN(CCc1ccccc1)C1CCc2cccc(O)c2C1 (centres unmarked) ?
Found: 190

Lookup: And for CCCN(CCc1ccccc1)C1CCc2cccc(OC)c2C1 (centres unmarked) ?
Found: 51

***
Lookup: Form field: reported Ki of CCCN(CCc1cccs1)C1CCc2cccc(OC)c2C1 (centres unmarked)
Found: 57

Lookup: And for CCCN(CCc1cc2ccc1CCc1ccc(cc1)CC2)C1CCc2cccc(OC)c2C1 (centres unmarked) ?
Found: 33

Lookup: And for CCCN(CCc1cc2ccc1CCc1ccc(cc1)CC2)C1CCc2cccc(O)c2C1 (centres unmarked) ?
Found: 170
